meta.source: paper PMC12344774

# assay: Cyclic voltammetry of the ferrocene/ferrocenium couple
# Format: physicochemical
# conditionLabel: scan rate 100 mV/s, CH2Cl2, 0.1 M TBAP
readoutName: ΔE (V)
Please give a number only; it is taken to be in V.

Would you mind telling me what ΔE value was observed for Cc1ccc2c(c1)nc(-[c-]1cccc1)n2CCN(CCNc1ccnc2cc(Cl)ccc12)[c-]1cccc1.[Fe+2].[Fe+2].c1cc[cH-]c1.c1cc[cH-]c1 [Complex C5] ?
0.190

Dear colleague, I am looking for the recorded ΔE of the following compound: Cc1ccc2c(c1)nc(-[c-]1cccc1)n2CCNCCNc1ccnc2cc(Cl)ccc12.[Fe+2].c1cc[cH-]c1 [Complex C2]
0.133

Quick one: ΔE of CN(C)Cc1ccc[c-]1CNc1ccnc2cc(Cl)ccc12.[Fe+2].c1cc[cH-]c1 (centres unmarked) [FQ, ferroquine, reference compound] ?
0.125

Data request, read-out ΔE, for Cc1ccc2c(c1)nc(-[c-]1cccc1)n2CCCNc1ccnc2cc(Cl)ccc12.[Fe+2].c1cc[cH-]c1 [Complex C1]
0.127

Reported ΔE, compound [Fe+2].c1cc[cH-]c1.c1cc[cH-]c1 [Ferrocene, reference compound] : ____
0.171

* * *

What CC50 was measured for each of the following?
Reply numerically in µM, unit not repeated.

Query CC50 on CHO cell line for Cc1ccc2c(c1)nc(-[c-]1cccc1CN(C)C)n2CCNCCNc1ccnc2cc(Cl)ccc12.[Fe+2].c1cc[cH-]c1 (stereo not shown)
29.8

Recall the recorded CC50 for `Cc1ccc2c(c1)nc(-[c-]1cccc1)n2CCCNc1ccnc2cc(Cl)ccc12.[Fe+2].c1cc[cH-]c1` with CHO cell line and state it.
43.7
